Attribution: patent US5371077A

- Test system: HMG-CoA reductase
- PROCEDURE TEXT: Effects of sterols on HMG-CoA reductase activity in CHO-K1 cells
- Type: cell-based
- CONDITIONS USED: 4 hours, sterol concentration 0.25 μM
VALUE TYPE: HMG-CoA reductase activity (% of control activity)

Known HMG-CoA reductase activity (% of control activity) results, listed for orientation:
MOLECULE	ASSAYED SYSTEM	RESULT
C[C@H](CCC(=O)O)[C@H]1CC(=O)C2=C3CC[C@H]4C[C@@H](O)CC[C@]4(C)[C@H]3CC[C@@]21C [I]	HMG-CoA reductase	77.3 % of control activity
CC(C)C(O)CC[C@@H](C)[C@H]1CC(=O)C2=C3CC[C@H]4C[C@@H](O)CC[C@]4(C)[C@H]3CC[C@@]21C (stereo partly drawn) [IV]	HMG-CoA reductase	33.5 % of control activity
C[C@H](CCCN(C)C)[C@H]1CC(=O)C2=C3CC[C@H]4C[C@@H](O)CC[C@]4(C)[C@H]3CC[C@@]21C [V]	HMG-CoA reductase	85.4 % of control activity
C[C@H](CCCC(F)(C(F)(F)F)C(F)(F)F)[C@H]1CC(=O)C2=C3CC[C@H]4C[C@@H](O)CC[C@]4(C)[C@H]3CC[C@@]21C [VI]	HMG-CoA reductase	49.1 % of control activity
CC(C)=CCC[C@@H](C)[C@H]1CC(=O)C2=C3CC[C@H]4C[C@@H](O)CC[C@]4(C)[C@H]3CC[C@@]21C [II]	HMG-CoA reductase	67.0 % of control activity

Okay, now this molecule:
Would you kindly share the measured HMG-CoA reductase activity (% of control activity) for C[C@H](CCCC(C)(C)O)[C@H]1CC(=O)C2=C3CC[C@H]4C[C@@H](O)CC[C@]4(C)[C@H]3CC[C@@]21C [III] ?
56.2 % of control activity
